Exercise: state measured melting point for each of the molecules provided.
Where a name gives a salt, the structure may show the parent alone.

Data request, read-out melting point, for CCS(=O)(=O)Nc1ccc2[nH]cc(CCCN3CCN(c4ncncc4OC)CC3)c2c1 (as salt: HCl) [Example 67]
140 to 145 °C

Please give the result for COc1cncnc1N1CCN(CCCc2c[nH]c3ccc(NS(C)(=O)=O)cc23)CC1 (as salt: HCl) [Example 63] too.
150 to 152 °C

Please give the result for COc1cncnc1N1CCN(CCCc2c[nH]c3c(F)cc(F)cc23)CC1 (as salt: HCl) [Example 76] too.
> 250 °C (dec.)

Please give the result for COc1cncnc1N1CCN(CCCc2c[nH]c3ccc(N(C)S(C)(=O)=O)cc23)CC1 (as salt: HCl) [Example 65] too.
227 to 230 °C

Please give the result for COc1cncnc1N1CCN(CCCc2c[nH]c3ccccc23)CC1C (stereo not drawn) (as salt: HCl) [Example 62] too.
185 °C (dec.)

Please give the result for CCS(=O)(=O)N(C)c1ccc2[nH]cc(CCCN3CCN(c4ncncc4OC)CC3)c2c1 (as salt: HCl) [Example 68] too.
223 to 225 °C

Please give the result for COc1cncnc1N1CCN(CCCc2c[nH]c3ccc(OCC#N)cc23)CC1 (as salt: hydrochloride) [Example 45] too.
198 to 200 °C (dec.)

Please give the result for CCS(=O)(=O)N(C)c1ccc2[nH]cc(CCCN3CCN(c4ncncc4OC)C(C)C3)c2c1 (stereo not drawn) (as salt: HCl) [Example 69] too.
205 to 207 °C

Please give the result for COc1cncnc1N1CCN(CCCc2c[nH]c3ccc(OCc4ccccc4)cc23)CC1 (as salt: HCl) (hydrate or solvate) [Example 72] too.
180 °C (dec.)

Please give the result for CCC(CCc1c[nH]c2ccccc12)N1CCN(c2ncncc2OC)CC1 (stereo not drawn) (as salt: salt) [Example 54] too.
145 °C (dec.)

Please give the result for COc1cncnc1N1CCN(CCCc2c[nH]c3ccc(CNC(C)=O)cc23)CC1 (hydrate or solvate) [Example 40] too.
169 to 174 °C

Please give the result for COc1cncnc1N1CCN(CCCc2c[nH]c3ccc(CCS(C)(=O)=O)cc23)CC1 [Example 50] too.
153 to 154 °C

====

Where a name gives a salt, the structure may show the parent alone.
QUANTITY: melting point

Data request, read-out melting point, for COc1cncnc1N1CCN(CCCc2c[nH]c3ccc(C(C)=O)cc23)CC1.Cl
215 to 217 °C (dec.)

Please give the result for COc1cncnc1N1CCN(CCCc2c[nH]c3ccc(CCS(C)(=O)=O)cc23)CC1C (stereo not drawn) (as salt: salt) [Example 51] too.
220 to 223 °C

Please give the result for COc1cncnc1N1CCN(CCCc2c[nH]c3ccc(N(C)S(=O)(=O)C(F)(F)F)cc23)CC1 (as salt: salt) [Example 26] too.
> 230 °C

Please give the result for COc1ccc2[nH]cc(CCCN3CCN(c4ncncc4OC)CC3)c2c1 (as salt: HCl) [Example 73] too.
130 to 150 °C (dec.)

Please give the result for COc1cncnc1N1CCN(CCCc2c[nH]c3c(F)ccc(F)c23)CC1 [Example 75] too.
160 to 165 °C

Please give the result for COc1cncnc1N1CCN(CCCc2c[nH]c3ccc(F)cc23)CC1 (as salt: hydrochloride) [Example 60] too.
119 to 122 °C

Please give the result for COc1cncnc1N1CCN(CCCc2c[nH]c3ccc(CS(=O)(=O)N(C)C)cc23)CC1 (as salt: hydrochloride) (hydrate or solvate) [Example 30] too.
210 °C (dec.)

Please give the result for COc1cncnc1N1CCN(CCCc2c[nH]c3ccc(N)cc23)CC1 (as salt: salt) [Example 43] too.
192 °C (dec.)

Please give the result for COc1cncnc1N1CCN(CCCc2c[nH]c3ccc(CNS(C)(=O)=O)cc23)CC1 (as salt: hydrochloride) (hydrate or solvate) [Example 31] too.
204 to 206 °C

Please give the result for CCCCNC(=O)c1ccc2[nH]cc(CCCN3CCN(c4ncncc4OC)CC3)c2c1.Cl too.
180 to 185 °C

Please give the result for CCOc1ccc2[nH]cc(CCCN3CCN(c4ncncc4OC)CC3)c2c1 [Example 71] too.
112 to 114 °C

Please give the result for CCS(=O)(=O)Nc1ccc2[nH]cc(CCCN3CCN(c4ncncc4OC)C(C)C3)c2c1 (stereo not drawn) (as salt: HCl) (hydrate or solvate) [Example 70] too.
212 to 214 °C

Please give the result for COc1cncnc1N1CCN(CCC(C)c2c[nH]c3ccccc23)CC1 (stereo not drawn) (as salt: hydrochloride) [Example 53] too.
169 to 172 °C (dec.)

Please give the result for COc1cncnc1N1CCN(CCCc2c[nH]c3cc(F)c(F)cc23)CC1 [Example 74] too.
102 to 104 °C

Please give the result for CCS(=O)(=O)N(Cc1ccccc1)Cc1ccc2[nH]cc(CCCN3CCN(c4ncncc4OC)CC3)c2c1 [Example 39] too.
73 to 75 °C

====

TARGET ENTITY: 5-HT1D binding site
PROTOCOL TEXT: 5-HT1D binding site affinity (tritiated serotonin; method of Heuring and Peroutka with minor modifications)
CONDITIONS: in vitro
Where a name gives a salt, the structure may show the parent alone.
Exercise: state measured IC50 for each of the compounds provided.
The reply should contain only the number, in nM.

Data request, read-out IC50, for CCS(=O)(=O)Nc1ccc2[nH]cc(CCCN3CCN(c4ncncc4OC)CC3)c2c1
13.7

Please give the result for COc1cncnc1N1CCN(CCCc2c[nH]c3ccc(F)cc23)CC1 [Example 60, hydrochloride] too.
3

Please give the result for CCS(=O)(=O)N(C)c1ccc2[nH]cc(CCCN3CCN(c4ncncc4OC)C(C)C3)c2c1 (stereo not shown) too.
19.1

Please give the result for CCC(CCc1c[nH]c2ccccc12)N1CCN(c2ncncc2OC)CC1 (stereo not shown) too.
20.5

====

Exercise: state measured pIC50 for each of the molecules provided.
TARGET ENTITY: 5-HT1D binding site
PROTOCOL TEXT: 5-HT1D binding site affinity (tritiated serotonin; method of Heuring and Peroutka with minor modifications)
CONDITIONS: in vitro
Keep in mind that pIC50 stands for -log10 of concentration in molar terms.

Data request, read-out pIC50, for CCS(=O)(=O)Nc1ccc2[nH]cc(CCCN3CCN(c4ncncc4OC)C(C)C3)c2c1 (stereo not shown)
7.77

Please give the result for CCOc1ccc2[nH]cc(CCCN3CCN(c4ncncc4OC)CC3)c2c1 too.
8.66

Please give the result for COc1cncnc1N1CCN(CCCc2c[nH]c3ccc(OCc4ccccc4)cc23)CC1 too.
7.84

Please give the result for COc1cncnc1N1CCN(CCCc2c[nH]c3ccc(O)cc23)CC1 too.
9.10

Please give the result for COc1cncnc1N1CCN(CCC(C)c2c[nH]c3ccccc23)CC1 (stereo not shown) too.
8.30

Please give the result for COc1cncnc1N1CCN(CCCc2c[nH]c3c(F)cc(F)cc23)CC1 too.
8.09

Please give the result for COc1ccc2[nH]cc(CCCN3CCN(c4ncncc4OC)CC3)c2c1 too.
8.96

Please give the result for COc1cncnc1N1CCN(CCCc2c[nH]c3ccccc23)CC1C (stereo not shown) too.
8.38

Please give the result for COc1cncnc1N1CCN(CCCc2c[nH]c3ccc(N(C)S(C)(=O)=O)cc23)CC1 too.
8.31

Please give the result for COc1cncnc1N1CCN(CCCc2c[nH]c3cc(F)c(F)cc23)CC1 too.
7.54

====

Exercise: state measured pIC50 for each of the compounds provided.
TARGET ENTITY: 5-HT1D binding site
PROTOCOL TEXT: 5-HT1D binding site affinity (tritiated serotonin; method of Heuring and Peroutka with minor modifications)
CONDITIONS: in vitro
Counter-ions that a name gives are not always drawn.
Keep in mind that pIC50 stands for -log10 of concentration in molar terms.

Data request, read-out pIC50, for COc1cncnc1N1CCN(CCCc2c[nH]c3c(F)ccc(F)c23)CC1
8.29

Please give the result for COc1cncnc1N1CCN(CCCc2c[nH]c3ccc(NS(C)(=O)=O)cc23)CC1 too.
8.28

Please give the result for CCS(=O)(=O)N(C)c1ccc2[nH]cc(CCCN3CCN(c4ncncc4OC)CC3)c2c1 too.
7.89

Please give the result for CCOc1cncnc1N1CCN(CCCc2c[nH]c3ccccc23)CC1 [Example 52, hydrochloride hydrate] too.
8.70

====

Where a name gives a salt, the structure may show the parent alone.
Exercise: state measured melting point for each of the compounds provided.

Data request, read-out melting point, for COc1cncnc1N1CCN(CCCc2c[nH]c3ccc(N4CCCC4=O)cc23)CC1.O=C(O)C(=O)O
100 to 101 °C

Please give the result for COc1cncnc1N1CCN(CCCc2c[nH]c3ccc(O)cc23)CC1 (as salt: hydrochloride) too.
215 °C

Please give the result for CCS(=O)(=O)N(C)Cc1ccc2[nH]cc(CCCN3CCN(c4ncncc4OC)CC3)c2c1 too.
113 to 115 °C

Please give the result for CCOc1cncnc1N1CCN(CCCc2c[nH]c3ccccc23)CC1.Cl.O (hydrate or solvate) too.
> 230 °C
